assay: melting temperature; fluorescence melt of hairpins on a sequencing array, two-state fit, raised by 9.35 °C to match UV melts; settings: sodium 0.088 M
Quick reference: Tm of the listed items.
Property Measured: Tm (°C)

>>> value_measured("TAGTCGAAAGACTA (((((....)))))")
49.6
>>> value_measured("GTAGAGGGAAACCTCTGC (.(((((....))))).)")
45.9
>>> value_measured("GTCGTAGGAAACTACAAC ((.((((....)))).))")
30
>>> value_measured("ACACTGAAAAGTGT (((((....)))))")
47.4
>>> value_measured("GTCGAGGGAAACCTCAAC ((.((((....)))).))")
36.5
>>> value_measured("GCCTCGCGAAAGCGGCGC ((..(((....)))..))")
58.5

---

assay: melting temperature; fluorescence melt of hairpins on a sequencing array, two-state fit, raised by 9.35 °C to match UV melts; conditions: sodium 0.088 M
Label rule met when Tm < 40 °C; otherwise rule not met.

>>> qualitative_label("GGGTTGGGAAACTAACCC (((((.(....).)))))")
"rule not met"
>>> qualitative_label("GCACCAGGAAACTGGCGC ((.((((....)))).))")
"rule not met"
>>> qualitative_label("GAGGTAGGAAACTACCTC (((((((....)))))))")
"rule not met"
>>> qualitative_label("GTACACGAAAGTGTAC ((((((....))))))")
"rule not met"
>>> qualitative_label("GTGGTAGGAAACTATCGC (.(.(((....))).).)")
"rule met"
>>> qualitative_label("GCTGGGCGAAAGCCGTGC ((..(((....)))..))")
"rule not met"
>>> qualitative_label("GCTCCTCCGAAAGGAAGC (((..(((....))))))")
"rule met"
>>> qualitative_label("GACTTCGGAAACAAAGTC (((((.(....).)))))")
"rule met"
>>> qualitative_label("GGCGATGGAAACGTCGTC (.(((.(....).))).)")
"rule not met"
>>> qualitative_label("GTTCGGGGAAACCCGAGC (.(((((....))))).)")
"rule not met"
>>> qualitative_label("GTCGCCGCGAAAGCGGAC (((..(((....))))))")
"rule met"
>>> qualitative_label("GATCCTCCTAAGGATC ((((((....))))))")
"rule not met"
>>> qualitative_label("GCATGGCGAAAGCCTCGC ((..(((....)))..))")
"rule not met"
>>> qualitative_label("GACACCGGAAACGGTGCC (.(((((....))))).)")
"rule not met"
>>> qualitative_label("GCTTTGCGAAAGCACAGC (((.(((....))).)))")
"rule not met"
>>> qualitative_label("GCTAGTCGAAAGACAGC (((.(((....))))))")
"rule not met"
>>> qualitative_label("GCCTGGCGAAAGCATGGC (((..((....))..)))")
"rule not met"
>>> qualitative_label("GGACCCGGAAACAGGTCC (((((.(....).)))))")
"rule not met"
>>> qualitative_label("GATCGAACTTCGATC ((((((...))))))")
"rule not met"
>>> qualitative_label("GCCAAGCGAAAGCAGGGC (((..((....))..)))")
"rule not met"
>>> qualitative_label("GGATACTCGAAAGAGTCC (((..(((....))))))")
"rule met"
>>> qualitative_label("GTTACCCGAAAGGGAAC (((.(((....))))))")
"rule not met"
>>> qualitative_label("GCAGCAGGAAACTGTTGC (((.(((....))).)))")
"rule not met"
>>> qualitative_label("GACCTAGAAATAGGTC ((((((....))))))")
"rule not met"
>>> qualitative_label("GATCTAGTCGTAGATC ((((((....))))))")
"rule not met"
>>> qualitative_label("GATCCTCTGAAGGATC ((((((....))))))")
"rule not met"
>>> qualitative_label("GGGAGTGGAAACGTTCCC ((((..(....)..))))")
"rule met"
>>> qualitative_label("GCAGCCGAAAGGCTTTGC ((((((....)))..)))")
"rule not met"
>>> qualitative_label("GATCTCTGCGAGATC ((((((...))))))")
"rule not met"

---

assay: folding enthalpy; higher = less favourable; fluorescence melt of hairpins on a sequencing array, two-state fit; conditions: sodium 0.088 M
Property Measured: folding enthalpy (kcal/mol)

>>> value_measured("GCCAAAACGAAAGTTGGC (((..(((....))))))")
-30.7
>>> value_measured("GATCATTAAAATGATC ((((((....))))))")
-29.5
>>> value_measured("GCACTCGAAAGAGTGTGC ((((((....)))..)))")
-20.1
>>> value_measured("GCGAGCGTCGC ((((...))))")
-10.2
>>> value_measured("GCCTGGCGAAAGCCGGC (((.(((....))))))")
-16.5
>>> value_measured("GATCATTCCTATGATC ((((((....))))))")
-31.5
>>> value_measured("GGGAACGAAAGTTGACCC ((((((....)))..)))")
-20.9
>>> value_measured("GCAACCGAAAGGTTTTGC ((((((....)))..)))")
-14.4
>>> value_measured("CGCACCCGGAAACGGGCG (((..(((....))))))")
-12
>>> value_measured("GGGGTCGGAAACAACCCC (((((.(....).)))))")
-31.7
>>> value_measured("GATCCGGTCCGGATC ((((((...))))))")
-40.6
>>> value_measured("GATACAGGAAACTGTGTC ((.((((....)))).))")
-25.9
>>> value_measured("GTCCTCGCGAAAGCGGAC (((..(((....))))))")
-12.7
>>> value_measured("GCGAAACCGAAAGGTCGC (((..(((....))))))")
-29.9
>>> value_measured("GAAAACGGAAACGTTTCC (.(((((....))))).)")
-15.1
>>> value_measured("GATGCCGAAAGGCACATC ((((((....)))..)))")
-8.64
>>> value_measured("GCAAACCGAAAGGTATGC (((.(((....))).)))")
-37.5
>>> value_measured("GATCTGTATACAGATC ((((((....))))))")
-40.8
>>> value_measured("GATCCGGGAAACCGGACC (.(((((....))))).)")
-13.2
>>> value_measured("GTAAGTGGAAACACTTGC (.(((((....))))).)")
-26.7
>>> value_measured("GCTCCTCGAAAGAGCAGC (((.(((....))).)))")
-21.5

---

assay: melting temperature; fluorescence melt of hairpins on a sequencing array, two-state fit, raised by 9.35 °C to match UV melts; conditions: sodium 0.088 M
Property Measured: Tm (°C)

>>> value_measured("GCAGTGGGAAACCATTGC (((.(((....))).)))")
50.1
>>> value_measured("GCGAGCCTCGC ((((...))))")
49.7
>>> value_measured("GATCCAGTGTTGGATC ((((((....))))))")
50.8
>>> value_measured("GCATTACGAAAGTATTGC (((.(((....))).)))")
48.9
>>> value_measured("GCTTGACGAAAGTCGAGC (((.(((....))).)))")
63.1
>>> value_measured("GCCAAGCGAAAGCATTGC ((.(.((....)).).))")
32.5
>>> value_measured("GTGTACGAAAGTAACAC ((((((....))).)))")
49.5
>>> value_measured("GCGCTTGGAAACGAGCGC (((((.(....).)))))")
63.8
>>> value_measured("GAAATAGAAATATTTC ((((((....))))))")
32.7
>>> value_measured("AACATGAAAATGTT (((((....)))))")
33.6
>>> value_measured("GCACAGCGAAAGCCATGC (((..((....))..)))")
38
>>> value_measured("GCTTCGCGAAAGCGCAGC (((.(((....))).)))")
54.1
>>> value_measured("GGTACAGGAAACTGCACC (((.(((....))).)))")
44.2

---

assay: folding enthalpy; higher = less favourable; fluorescence melt of hairpins on a sequencing array, two-state fit; settings: sodium 0.088 M
Think of -20 kcal/mol as a floor: if folding enthalpy stands on it or above, it is Fulfilled; beneath it, Not fulfilled.

>>> qualitative_label("GCGATCGCGAAAGCGCGC (((..(((....))))))")
"Fulfilled"
>>> qualitative_label("GCACTGCGAAAGCATGGC ((..(((....)))..))")
"Fulfilled"
>>> qualitative_label("TGCTCGAAAGAGCA (((((....)))))")
"Fulfilled"
>>> qualitative_label("GCTTTGCGAAAGCGACGC ((.(.((....)).).))")
"Fulfilled"
>>> qualitative_label("GATCTTCTATAAGATC ((((((....))))))")
"Not fulfilled"
>>> qualitative_label("GGCCTCACGAAAGTGGCC (((..(((....))))))")
"Not fulfilled"
>>> qualitative_label("GCACTCGAAAGAGGTGC ((((((....))).)))")
"Not fulfilled"
>>> qualitative_label("GTCGACGGAAACGCCGAC ((((.((....)).))))")
"Not fulfilled"
>>> qualitative_label("GATCCCAACCGGGATC ((((((....))))))")
"Not fulfilled"
>>> qualitative_label("GGGCCCCGAAAGGGTCCC (((.(((....))).)))")
"Not fulfilled"
>>> qualitative_label("GAGAAGCGAAAGCTACTC (((.(((....))).)))")
"Not fulfilled"
>>> qualitative_label("GCGGAAGGAAACTTCTGC ((.((((....)))).))")
"Not fulfilled"
>>> qualitative_label("CGATCGGAAACGATTCG ((((((....))).)))")
"Not fulfilled"
>>> qualitative_label("GGCACCCGAAAGGGCGCC (((.(((....))).)))")
"Not fulfilled"
>>> qualitative_label("GCTTTAGGAAACTAAGGC ((.((((....)))).))")
"Not fulfilled"
>>> qualitative_label("GGGCATTCGAAAGAACCC (((..(((....))))))")
"Fulfilled"
>>> qualitative_label("GTCAAGGGAAACCTCGAC (((.(((....))).)))")
"Fulfilled"
>>> qualitative_label("GCCTCCCGAAAGGGGGC (((.(((....))))))")
"Not fulfilled"
>>> qualitative_label("GTTGGGGGAAACCTCAAC ((((.((....)).))))")
"Not fulfilled"
>>> qualitative_label("GCCCATGGAAACACGGGC ((((.((....)).))))")
"Not fulfilled"
>>> qualitative_label("GGCGACGAAAGTCTGCC ((((((....))).)))")
"Not fulfilled"
>>> qualitative_label("GACGTCGCGAAAGCGGTC (((..(((....))))))")
"Fulfilled"
>>> qualitative_label("GCCGCCGAAAGGCGAGGC ((((((....)))..)))")
"Fulfilled"
>>> qualitative_label("GATCCGGCACCGGATC ((((((....))))))")
"Not fulfilled"
>>> qualitative_label("GGGAACGAAAGTTGGCCC ((((((....)))..)))")
"Fulfilled"
>>> qualitative_label("GATCGAAACCTCGATC ((((((....))))))")
"Not fulfilled"
>>> qualitative_label("GCACGCGGAAACGCGCAC (..((((....))))..)")
"Fulfilled"
>>> qualitative_label("GGGTATGGAAACACACCC ((((.((....)).))))")
"Not fulfilled"
>>> qualitative_label("GAGGAGAAATCCTC (((((....)))))")
"Not fulfilled"
>>> qualitative_label("GGTGATGGAAACATCGTC (..((((....))))..)")
"Fulfilled"
>>> qualitative_label("GAAGATACGAAAGTATTC (((..(((....))))))")
"Fulfilled"
